- Tested on: A549 NSCLC
- test.summary: NCI tumour cell line growth inhibition, 48 h
Recorded TGI, one value per entry.

compound	TGI
O=C(O)c1ccccc1CC1Cc2ccccc2C1	> 100 µM
Cc1cccc(C)c1NC(=O)C(=O)C(C#N)c1ccccc1Cl (stereo unspecified)	> 100 µM
NC(CSS(=O)(=O)c1ccccc1)C(=O)O (stereo unspecified)	> 10 µM
COC(=O)[C@@H](C[C@H](Cc1ccccc1)NC(=O)c1csc([C@@H](C[C@H](C(C)C)N(C)C(=O)[C@@H](NC(=O)[C@H]2CCCCN2C)C(C)C)OC(C)=O)n1)NC(=O)OCc1ccccc1	> 8.33 µM
COc1ccc(C2C=C(c3ccccc3)Nc3nnnn32)cc1 (stereo unspecified)	> 100 µM
COc1cc(/C=N/c2nncs2)ccc1O	> 100 µM
